Tested on: L-02 cells
Test: Intracellular accumulation in L-02 cells by LC–MS/MS
Format: in vitro ADME, human
Details: L-02, JLZS extracts 6.5 mg/mL, time 5 h, n = 6
readout kind: log10 Intracellular concentration (log10 of the value in ng/mL)
A difference of one corresponds to tenfold Intracellular concentration; all values are log10 with Intracellular concentration in ng/mL.

Q: Look up log10 Intracellular concentration: COc1cc2c(cc1OC)-c1c(C)c3ccc(OC)c(OC)c3c[n+]1CC2 [DHC, dehydrocorydaline]
A: 2.09

Q: Look up log10 Intracellular concentration: CC(=O)O[C@@H]1C[C@H](O)[C@@]23CO[C@@H](O)[C@]1(C)[C@@H]2C[C@@H](O)[C@]1(C)[C@@H]3C(=O)[C@H](OC(C)=O)[C@@]2(C)[C@H](c3ccoc3)C[C@H]3O[C@]321 [TSN, toosendanin]
A: 1.42

Q: Look up log10 Intracellular concentration: c1c2c(cc3c1OCO3)-c1cc3ccc4c(c3c[n+]1CC2)OCO4 [COP, coptisine]
A: 2.30

Q: Look up log10 Intracellular concentration: COc1cc2c(cc1O)CC[n+]1cc3c(OC)c(OC)ccc3cc1-2 [JAT, jatrorrhizine]
A: 1.33

Q: Look up log10 Intracellular concentration: COc1cc2c(cc1OC)-c1cc3ccc(OC)c(OC)c3c[n+]1CC2 [PAL, palmatine]
A: 1.99

Q: Look up log10 Intracellular concentration: COc1ccc2cc3[n+](cc2c1OC)CCc1cc2c(cc1-3)OCO2 [BER, berberine]
A: 1.09

Q: Look up log10 Intracellular concentration: c1cc2c(c3c1CC1c4cc5c(cc4CCN1C3)OCO5)OCO2 (stereo not shown) [THC, tetrahydrocoptisine]
A: 1.18

---

Experiment: Stability of analytes in cell lysates (LC–MS/MS method validation)
Format: physicochemical
Settings: three freeze-thaw, low QC level, n=3
Method: The stability of seven analytes including short-term stability (12 h at room temperature), post-preparation stability at 4 ℃ (24 h at autosampler), freeze-thaw stability (three freeze-thaw stability) and long-term stability (-80℃ for a month) was tested by analyzing three replicates at low and high QC levels during various sample storage and handling process.
readout kind: Freeze-thaw stability RE% (%)
# output: bare number, implied unit %

Q: Look up Freeze-thaw stability RE%: CC(=O)O[C@@H]1C[C@H](O)[C@@]23CO[C@@H](O)[C@]1(C)[C@@H]2C[C@@H](O)[C@]1(C)[C@@H]3C(=O)[C@H](OC(C)=O)[C@@]2(C)[C@H](c3ccoc3)C[C@H]3O[C@]321 [TSN, toosendanin]
A: 6.2

Q: Look up Freeze-thaw stability RE%: COc1cc2c(cc1OC)-c1c(C)c3ccc(OC)c(OC)c3c[n+]1CC2 [DHC, dehydrocorydaline]
A: -0.6

Q: Look up Freeze-thaw stability RE%: COc1cc2c(cc1OC)-c1cc3ccc(OC)c(OC)c3c[n+]1CC2 [PAL, palmatine]
A: -3.5

Q: Look up Freeze-thaw stability RE%: COc1ccc2cc3[n+](cc2c1OC)CCc1cc2c(cc1-3)OCO2 [BER, berberine]
A: 5.6

Q: Look up Freeze-thaw stability RE%: c1c2c(cc3c1OCO3)-c1cc3ccc4c(c3c[n+]1CC2)OCO4 [COP, coptisine]
A: 0.7

Q: Look up Freeze-thaw stability RE%: c1cc2c(c3c1CC1c4cc5c(cc4CCN1C3)OCO5)OCO2 (stereo not shown) [THC, tetrahydrocoptisine]
A: -2.5

Q: Look up Freeze-thaw stability RE%: COc1cc2c(cc1O)CC[n+]1cc3c(OC)c(OC)ccc3cc1-2 [JAT, jatrorrhizine]
A: 2.9
